Cited source: PubChem BioAssay

Listed here: items and their measured inhibition.
Assay summary: blockers of RIG-like receptor reporter activation – cell-based, Sendai virus stimulus, luciferase, 10K MLSCN set, TLR/RLR signaling modifier project, primary screen (AID 602276);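 also: firefly luciferase from ISG56 promoter only with Renilla not read in this screen; 0% = Sendai virus plus DMSO and 100% = medium plus DMSO without virus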
Condition: HEK293 RL24 IRF3 luciferase reporter, at 10 µM, stronger effect = higher value
Calls of active or inactive are those of the source.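 The calls were made as follows: active = inhibition at or above 50% at 10 µM; inactive = inhibition below 50%.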

Below, 3 molecules whose answers are already recorded.
Molecule | Result
O=c1cc(-c2ccc(Cl)cc2)[nH][nH]1 | 15.8% (inactive)
O=C1CS/C(=N\C(=O)N2c3ccccc3Sc3ccccc32)N1 | 12% (inactive)
COC(=O)c1ccccc1NC(=O)CSc1nnnn1C1CCCCC1 | 3.68% (inactive)

Report inhibition for "CCOc1ccc(CN2CCN(c3cc(C)nc4c5c(C)cc(C)nc5nn34)CC2)cc1" please. 11.7% (inactive)

Note, next up: "CCN(CC)C(=O)Oc1ccccc1NC(C)=O" 20.6% (inactive)

# repeat for "COc1ccc(-c2nn3c(-c4ccncc4)nnc3s2)cc1OC" 19.4% (inactive)

Then this molecule: "CCn1c(SCC(=O)Nc2nccs2)nnc1-c1ccncc1" 14.8% (inactive)

====

Assay summary: inhibitors of TNFa-induced NFkB p65 translocation, primary screen, imaging, HUVEC, MLSMR starter and 10KST1 sets (AID 438);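 also: compound added about 3h40 before a 20 min TNFalpha stimulation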
Condition: HUVEC TNFa-induced p65 nuclear translocation; measured here: nuclei count (cytotoxicity indicator), at 2.08 µM
Listed next: entries and their corresponding cell count.
Form field (numeric): enter value without unit.

Solved cases below.
Compound | cell count
CCOc1ccc(-n2c(=O)cc(N3CCN(c4ccccc4)CC3)[nH]c2=O)cc1 | 542
Cc1cnn(C(=S)NCc2ccco2)c1 | 465

What value of measured cell count is listed for Cc1ccc2c(c1)c1c(n2CC(O)Cn2c(C)nc3ccccc32)/C(=N\O)CCC1 (stereo unspecified) ? 459

Same question for "O=C(C1CCC1)N1CCc2cc(S(=O)(=O)N3CCc4ccccc4C3)ccc21" please. 299

Further, for "Cc1ccccc1CNS(=O)(=O)c1ccc2c(c1)OCCO2" ? 450

What do you have for "CCn1c(=O)n(CC(=O)NCc2ccccc2OC)c(=O)c2ccccc21" ? 467

Now consider "Cc1ccc(S(=O)(=O)N(C)c2ccc(OCC(=O)OCc3c(C)noc3C)cc2)cc1" and answer again. 455

Now consider CCOc1ccccc1N1C(=O)CC(Sc2ncccc2C(=O)O)C1=O (stereo unspecified) and answer again. 890

Input "Cc1cc2c(s1)c1cnn(CC(=O)NCCc3ccccc3)c(=O)c1n2C" 279

Request: "CCc1nccn1S(=O)(=O)c1ccc2ccc(C)cc2c1" 319

Query "O=C(CSc1ccc(Cl)cc1)OCc1nnc(-c2ccccc2)o1" next 503

====

The entries below are paired with their reported inhibition.
Assay summary: inhibitors of TNFa-induced NFkB p65 translocation, primary screen, imaging, HUVEC, MLSMR starter and 10KST1 sets (AID 438);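 also: compound added about 3h40 before a 20 min TNFalpha stimulation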;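 as to inhibition: signal is the nuclear over cytoplasmic p65 intensity ratio per well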
Condition: HUVEC TNFa-induced p65 nuclear translocation; at 2 µM, stronger effect = higher value, 0% TNFa-plus-vehicle, 100% no-TNFa wells
Your answer is read as %, so omit the unit and give the number.

Compound | inhibition (%)
CCOc1cc(C2c3c(n[nH]c3C)C(=O)N2c2ccc(Br)cc2)ccc1O (configuration not stated) | -2.3

Here is another compound to look at.
Given Cc1ccc(S(=O)(=O)NCC2CCC(C(=O)NCCCN3CCOCC3)CC2)cc1 (configuration not stated) , state its recorded inhibition. 1.9

====

Assay summary: reduction of polyQ htt aggregates in cells – imaging, exon1htt(103Q)mCFP cells, high-content imaging, primary screen (AID 483);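 also: compound exposure lasted 3 days before fixation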;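 as to nuclei count: percent of the per-plate median nuclei count of sample wells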
Condition: exon1htt(103Q)mCFP cell line, aggregate imaging, at 2 µM; measured here: cell count, toxicity
Measure: nuclei count (%)
Numeric only. Scale: %

# input compound: "CC(C)CCNC(=O)NC(=O)CSc1nnc(COc2ccccc2Cl)o1" ; wanted: its nuclei count 98.5

Then this compound: "CCN(CC)c1ccc2c(c1)C(=O)N(C)C2=O" 92.2

What do you have for "O=C(CN1CCOCC1)N1CCN(C(=O)CN2CCOCC2)CC1" ? 120

Same question, "CCOC(=O)c1cc2oc(C)cc2n1CC(=O)OC1CCCCC1" this time 110

Next up: "Cc1noc(C)c1S(=O)(=O)Nc1c(C)n(C)n(-c2ccccc2)c1=O" 84.8

====

fluorescence slope: recorded values
Target or system: Voltage-gated potassium channel subunit beta-2 (Rattus norvegicus) (UniProt P62483)
Sequence (P62483 whole entry, looked up): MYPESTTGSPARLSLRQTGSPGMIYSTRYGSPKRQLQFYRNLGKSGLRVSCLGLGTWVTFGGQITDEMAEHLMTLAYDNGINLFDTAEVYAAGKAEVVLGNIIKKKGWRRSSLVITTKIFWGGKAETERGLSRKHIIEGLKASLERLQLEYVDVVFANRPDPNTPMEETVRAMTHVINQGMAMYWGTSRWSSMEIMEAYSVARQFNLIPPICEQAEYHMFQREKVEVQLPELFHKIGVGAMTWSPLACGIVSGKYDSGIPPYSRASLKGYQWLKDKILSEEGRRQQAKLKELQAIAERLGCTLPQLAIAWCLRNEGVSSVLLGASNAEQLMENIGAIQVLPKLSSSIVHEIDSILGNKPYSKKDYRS
Assay summary: inhibitors of rat Kvbeta2 reductase activity – biochemical, NADPH fluorescence, primary screen (AID 622);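 also: slope of raw intensity against log time taken from 70 to 1610 s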
Condition: recombinant KvBeta, 4-cyanobenzaldehyde reduction, at 10 µM, stronger effect = higher value
# answer = number (no unit)

Compound | Measure | Measured number
CC1(C)CC(=O)C=C(NCCO)C1 | fluorescence slope | -0.395

For the compound "CC(=O)Nc1cccc(NC(=O)CSc2nnnn2C(C)C)c1" , what fluorescence slope is on record? -0.436

And what about the compound "Clc1cccc(-c2nn3c(Cn4cnc5ccccc54)nnc3s2)c1" ? -0.432

Do the same for "CC1=NS(=O)(=O)c2cc(Cl)ccc2N1" please -0.43

Similarly, "COc1ccc(CCNS(=O)(=O)c2ccc(C(=O)NCc3ccco3)cc2)cc1OC" ? -0.579

====

Assay summary: endothelial E-selectin expression blockers – imaging, HUVEC, immunofluorescence, MLSMR starter and 10KST1 sets, primary screen (AID 487);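 also: 100% = median nuclei count of all wells on the same plate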
Condition: HUVEC TNFalpha-induced E-selectin immunofluorescence imaging, at 2 µM; measured here: cell number, toxicity
Measure: nuclei count (%)
// note: answer is a bare numeric in %

Compound | Unit abbreviation | nuclei count
CC(C)(C#N)C(C)(C)c1nn[nH]n1 | % | 72.6
COc1ccc(-c2coc3c(CN4CCCCC4)c(O)c(CN4CCCCC4)c(O)c3c2=O)cc1 | % | 103
CC(=O)c1cc(-c2ccccc2)n(CC(=O)N2CCN(C3CCCC3)CC2)c1C | % | 103

Proceeding to the next compound to report its nuclei count.
Give the measured nuclei count of "CC(=O)Nc1ccc(Oc2cc(C#N)c(C#N)cc2N2CCCCCC2)cc1" . 127

====

Assay summary: reduction of polyQ htt aggregates in cells – imaging, exon1htt(103Q)mCFP cells, high-content imaging, primary screen (AID 483);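 also: compound exposure lasted 3 days before fixation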;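 as to nuclei count: percent of the per-plate median nuclei count of sample wells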
Condition: exon1htt(103Q)mCFP cell line, aggregate imaging, at 2 µM; measured here: cell count, toxicity
Measure: nuclei count (%)
// units = %; emit number, no label

Compound | nuclei count, %
O=S(=O)(NCCSc1ccccc1)c1cccs1 | 103

Look up nuclei count: "COc1cccc(C(=O)Nc2ccc(N(C)C)cc2)c1OC" 104

What do you get for "O=C(NCc1ccco1)c1cc2c(s1)CSC2" ? 105

Next up: "O=S(=O)(NCCc1csc(-c2ccccc2)n1)c1ccc2c(c1)OCCO2" 108

====

Assay summary: reduction of polyQ htt aggregates in cells – imaging, exon1htt(103Q)mCFP cells, high-content imaging, primary screen (AID 483);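 also: compound exposure lasted 3 days before fixation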
Condition: exon1htt(103Q)mCFP cell line, aggregate imaging, at 2 µM; stronger effect = higher value
Measure: inhibition of aggregation (%)
The reply should contain only the number, in %.

Would you please look over these solved cases?
Molecule | Measure | Measured number
O=C(OCC(=O)c1c[nH]c2ccccc12)C1=COCCO1 | inhibition of aggregation | -9.2
C1CCC2=NCCCN2CC1 | inhibition of aggregation | 7.9
Cc1cc(=O)[nH]c2c1cnn2Cc1ccccc1 | inhibition of aggregation | 13.6
CCc1nccn1S(=O)(=O)c1ccc2ccc(C)cc2c1 | inhibition of aggregation | -4.1
COc1ccccc1C(O)P(=O)(OC(C)C)c1ccc(N(C)C)cc1 (configuration not stated) | inhibition of aggregation | 6.1

We next turn to a different molecule, shown below.
Reported inhibition of aggregation for "Cn1c(=O)[nH]c(=O)c2c1nc(N1CCNCC1)n2Cc1cccc2ccccc12" : what is it? 13.1

====

Assay summary: Primary imaging screen for DUSP6 inhibitors that restore phospho-Erk in transfected HeLa cells, chemical complementation (AID 609)
Condition: HeLa MKP-3 transfected, phospho-Erk imaging KS statistic; measured here: nuclear pErk red intensity z-score; at 10 µM; stronger effect = higher value; cells stimulated with TPA for 15 min
Rule: y for z-score not less than 1, n for anything less.

Solved entries:
Compound | Assigned class
CC(=O)[C@@]1(O)CC[C@H]2[C@@H]3C[C@H](C)C4=CC(=O)C=C[C@]4(C)[C@@]3(F)[C@@H](O)C[C@@]21C | y
COc1ccc(C(=O)C2CCCCC2=O)cc1 (centres undefined) | y
O=C(c1ccc(F)cc1)C1CCN(CCn2c(=O)[nH]c3ccccc3c2=O)CC1 | n
CN(C)C(=O)Oc1ccc[n+](C)c1 | n
CN1Cc2c(N)cccc2C(c2ccccc2)C1 (centres undefined) | y
CC(=O)O[C@@]12CO[C@@H]1C[C@H](O)[C@@]1(C)C(=O)[C@H](O)C3=C(C)[C@@H](OC(=O)[C@H](O)[C@@H](NC(=O)OC(C)(C)C)c4ccccc4)C[C@](O)([C@@H](OC(=O)c4ccccc4)[C@H]21)C3(C)C | y
CN(C)CCCN1c2ccccc2CCc2ccccc21 | y
COc1ccc([C@@H]2Sc3ccccc3N(CCN(C)C)C(=O)[C@@H]2OC(C)=O)cc1 | n

Decide: is the reported value of z-score for "COCCN(Cc1ccccc1)P(=O)(O)c1ccccc1OCC(=O)O" equal to or greater than 1? n
